# Tested on: MS2 coat protein
# METHOD_SUMMARY: apparent KD of MS2 coat protein; designed switch direction (-1 OFF switch, 1 ON switch): -1; higher = weaker reporter binding
# STUDY_CONDITIONS: Eterna round: R95; input ligand: FMN 200 uM
PROPERTY_MEASURED: apparent KD of MS2 coat protein (µM)

- ITEM_SEQUENCE: "UGGUAACAUGAGGAUCACCCAUGUCAGGAUAUCAGUAAGAAUAGAUUAGAUUAGAAUAUGAGAAGGGACUAUAG [Excluse me! 3 - Jieux - Exclusion 1] (puzzle: Exclusion 1)"
  UNIT_SYMBOL: "µM"
  OBS_VALUE: 0.0385
- ITEM_SEQUENCE: "GCUUUUCUUUUCCUUUCUUACAUGAGGAUCACCCAUGUUUCUUGUCGUGCUCGCGUUGUUCGUCUGUCUGUCUGUUG [salish99_TOv1_r3_081] (puzzle: Sensor v3, turn-off variant 1)"
  UNIT_SYMBOL: "µM"
  OBS_VALUE: 0.0374
- ITEM_SEQUENCE: "GCUUGGCGAGGAUAUACAUGAGGAUCACCCAUGUGAGAGAAGAAAGUGAGGAAGAAAAGUAGAAGGCGCUGAGG [Mat - Exclusion 3 - Mod of Salish D61] (puzzle: Exclusion 3)"
  UNIT_SYMBOL: "µM"
  OBS_VALUE: 0.372
